Data origin: ChEMBL document CHEMBL1201862

System: SNB-78
Test: NCI tumour cell line growth inhibition, 48 h
The source made the active and inactive calls. Rule as the data show it: active = GI50 up to about 1.1 µM and inactive = higher.
measured_quantity: GI50

>>> reported_result("ClCCC[Si]12OCCN(CCO1)CCO2")
"> 100 µM (inactive)"
>>> reported_result("O=C(O)CSc1nnc(-c2ccccc2O)[nH]1")
"> 100 µM (inactive)"
>>> reported_result("COc1ccccc1NC(=O)/C(=C/c1ccccc1)C(C)=O")
"10.8 µM (inactive)"
>>> reported_result("O=C1C[C@@H]2[C@@H](C=CC23CC3)N1O")
"> 100 µM (inactive)"
>>> reported_result("O=C(CN1C(=O)c2ccccc2C1=O)OC1C=CCCC1 (stereo unspecified)")
"> 100 µM (inactive)"
>>> reported_result("CC1=CC(=C(c2ccc(N)c(C)c2)c2ccc(N)c(C)c2)C=CC1=N")
"4.84 µM (inactive)"
>>> reported_result("CCCCc1c2c(nc3c1CCc1cc4cc5c(nc4nc1-3)-c1nc3c(c(CCCC)c1CC5)CCC/C3=C\\c1ccccc1)/C(=C/c1ccccc1)CCC2")
"> 100 µM (inactive)"
>>> reported_result("CSc1nc(SC)c2c(C#N)n[nH]c2n1")
"> 100 µM (inactive)"
>>> reported_result("OCC1OC(n2ccc3cnccc32)CC1O (stereo unspecified)")
"> 100 µM (inactive)"
>>> reported_result("CSC1C=C(C(C)C)CCC1(C)SC (stereo unspecified)")
"16.5 µM (inactive)"
>>> reported_result("O=C1NC(=O)C(C(=O)C(=O)Nc2cccc(C(F)(F)F)c2)C(=O)N1")
"> 100 µM (inactive)"
>>> reported_result("CCCCCCCCCCCCCCCCCCOCC(COCCOCC[N+]1(CCCCCC(=O)[O-])CCCC1)Oc1ncccn1 (stereo unspecified)")
"2.56 µM (inactive)"
>>> reported_result("CCOC(=O)Nc1ccc(S(=O)(=O)NCCCl)cc1.CCOC(=O)Nc1ccc(S(=O)(=O)NCCCl)cc1.O=C(O)c1ccc(/N=N/Cl)cc1O")
"> 100 µM (inactive)"
>>> reported_result("C/C(=N\\NS(=O)(=O)c1ccccc1)c1ccc[n+]([O-])n1")
"63.7 µM (inactive)"
>>> reported_result("CC1=CC(=O)c2ccc3c4ccccc4n(C)c3c2C1=O")
"90.8 µM (inactive)"
>>> reported_result("O=C(NCCCCCCNC(=O)NC1OCC(O)C(O)C1O)NC1OCC(O)C(O)C1O (stereo unspecified)")
"> 100 µM (inactive)"
